B1: RIPK4 (parent)
chain: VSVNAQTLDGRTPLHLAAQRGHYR

Variants of: B1
Assay: protein stability index of a GFP-peptide fusion (GPS, HEK-293T) (PSI 1-6); higher = more stable;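 further: lentivirally expressed fusions sorted by FACS into six bins by GFP to DsRed ratio, PSI derived from sequencing read proportions per bin multiplied by bin number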
Settings: c terminus: a fixed tail appended
ATTRIBUTE MEASURED: protein stability index
Please reply with the number alone, leaving off any unit.

R11H : 3.11
T12R : 3.23

What does the data say about its protein stability index? Entry: `Y23N` 4.17

Next: `D9N` 3.33

And the next one, `A5S` ? 3.37

`D9L` , same question. 2.81

Can you handle `R20Y` next? 2.41

Where these numbers come from: the supplement of paper PMC10567573
